Cited source for all entries: patent US20170157135A1

# System: PC3 prostate cancer cells
# Procedure Summary: Anti-proliferative assay (cell-titre luminescent), PC3
# Assay type: cell-based
# Condition Details: PC3, 72 hours, luminescence

Compound | Bound Operator | IC50 (µM)
CCN(CC)CCCn1c(C)c(C(=O)N2CCN(CCc3cccc(F)c3)CC2)c2cc(OC)ccc21 [Compound 2053] | = | 11
CCN(CC)CCCn1c(C)c(C(=O)N2CCN(CCc3ccc4c(c3)OCO4)CC2)c2cc(OC)ccc21 [Compound 2052] | = | 10.9
COc1ccc(CCN2CCN(C(=O)c3c(C)n(CCCN(C)C)c4ccccc34)CC2)cc1 [Compound 2039] | = | 7.6
CCOc1ccc2c(c1)c(/C=C/C(=O)N1CCN(CCc3ccc(F)cc3)CC1)c(C)n2CCCN1CCN(C)CC1 [Compound 2037] | = | 8.7
COc1ccc(CCN2CCN(C(=O)/C=C/c3c(C)n(CCCN(C)C)c4ccc(OC)cc34)CC2)cc1 [Compound 2019] | = | 9.3
Cc1c(C(=O)N2CCN(CCc3ccc(F)cc3)CC2)c2ccccc2n1CCCN(C)C [Compound 2038] | > | 30
